molecular target: TNFα (Homo sapiens (Human)); assay: TNF induced HEK-Blue assay; details: TNFα 0.5 ng/ml; HEK-Blue-CD40L cells, NF-κB-driven secreted alkaline phosphatase reporter; 18 h
Sequence (P01375 77-233): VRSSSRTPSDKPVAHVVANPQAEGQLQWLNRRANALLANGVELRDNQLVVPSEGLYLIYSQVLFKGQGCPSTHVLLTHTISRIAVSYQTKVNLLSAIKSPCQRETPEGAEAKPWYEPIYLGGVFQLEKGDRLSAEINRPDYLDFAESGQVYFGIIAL
assay_metric: IC50

compound	result
NC(=O)c1ccc(-c2ccc3nc4c(n3n2)[C@@H](c2ccccc2OC(F)F)NC[C@H]4O)cc1Cl (racemic)	10 to 25 µM
Cc1cc(F)ccc1[C@@H]1NC[C@@H](O)c2nc3ccc(-c4ccc(C(C)(C)O)cc4)nn3c21 (racemic)	1 to 10 µM
CCOC(C)c1ccc(-c2ccc3nc4c(n3n2)C(c2ccccc2OC(F)F)NCC4O)cc1 (racemic)	1 to 10 µM
COc1ccccc1COc1ccc(-c2ccc3nc4c(n3n2)[C@@H](c2ccccc2OC(F)F)NC[C@H]4O)cc1 (racemic)	1 to 10 µM

Name the recorded IC50 of the compound listed here: CC(C)(O)c1ccc(-c2ccc3nc4c(n3n2)[C@@H](c2cc(Cl)ccc2OC(F)F)NC[C@H]4O)cc1 (racemic)
1 to 10 µM

Dear colleague, please send me the reported IC50 for COc1ccc(-c2ccc3nc4c(n3n2)C(c2ccccc2OC(F)F)NCC4O)cn1 (stereo not drawn) when you can.
1 to 10 µM
